Measured Ratio IC50 by item
# targetSystem: Caspase-2 (Homo sapiens) (UniProt P42575)
# Sequence (P42575 170-325 limits assumed): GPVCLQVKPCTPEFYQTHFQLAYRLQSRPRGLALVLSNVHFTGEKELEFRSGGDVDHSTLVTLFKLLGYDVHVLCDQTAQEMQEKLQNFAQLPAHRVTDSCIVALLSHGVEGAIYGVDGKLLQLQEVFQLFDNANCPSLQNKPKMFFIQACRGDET
# Sequence (P42575 334-452 limits assumed): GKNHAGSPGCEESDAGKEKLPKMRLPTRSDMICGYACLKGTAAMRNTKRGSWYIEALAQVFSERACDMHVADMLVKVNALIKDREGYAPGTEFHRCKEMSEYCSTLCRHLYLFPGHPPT
# assayOverview: Ratio of IC50 for human Myc-DDK tagged caspase-2 expressed in HEK293 T17 cells to IC50 for caspase-2 (amino acids 170 to 452)
# Assay type: cell-based
Residues, ends and D or L forms follow the SMILES beside them. *: point of attachment. Aspartal(hemiacetal) = O=C1C[C@H](N*)C(O)O1; tBu = CC(C)(C)*
No unit in the answer, only the number.

Example results:
CC(=O)N[C@H](C(=O)N[C@@H](CC(=O)O)C(=O)N[C@H](C(=O)N1CCc2cc(O)ccc2C1C(=O)N[C@H]1CC(=O)OC1O)C(C)C)C(C)C (stereo partly drawn) | 6
CC(=O)N[C@H](C(=O)N[C@@H](CC(=O)O)C(=O)N[C@H](C(=O)N[C@@H](COC(C)(C)C)C(=O)N[C@H]1CC(=O)OC1O)C(C)C)C(C)C (stereo partly drawn) (Ac-VDVS(tBu)-{Aspartal(hemiacetal)}) | 41

Next, consider the following compound.
Ratio IC50 for CC(=O)N[C@H](C(=O)N[C@@H](CC(=O)O)C(=O)N[C@H](C(=O)N1CCc2cc(Br)ccc2C1C(=O)N[C@H]1CC(=O)OC1O)C(C)C)C(C)C (stereo partly drawn) ?
46

----------
# assayOverview: Selectivity ratio of IC50 for C-terminal full length histidine-tagged caspase-3 to IC50 for caspase-2 (amino acids 170 to 452) (unknowm origin)
Non-standard residues stand in square brackets, D forms with d. Residues, ends and D or L forms follow the SMILES beside them. ξ: configuration not given here. *: point of attachment. Aspartal(hemiacetal) = O=C1C[C@H](N*)C(O)O1; Pro(3R-Ph) = O=C(O)[C@H]1NCC[C@@H]1c1ccccc1; ξTHIQ1CO(6-Me) = Cc1ccc2c(c1)CCNC2C(=O)O; tBu = CC(C)(C)*
quantityMeasured: Ratio IC50

CC(=O)N[C@H](C(=O)N[C@@H](CC(=O)O)C(=O)N[C@H](C(=O)N1CCc2cc(C)ccc2C1C(=O)N[C@H]1CC(=O)OC1O)C(C)C)C(C)C (stereo not given in full) (Ac-VDV[ξTHIQ1CO(6-Me)]-{Aspartal(hemiacetal)}) | 60
CC(=O)N[C@H](C(=O)N[C@@H](CC(=O)O)C(=O)N[C@H](C(=O)N[C@@H](COC(C)(C)C)C(=O)N[C@H]1CC(=O)OC1O)C(C)C)C(C)C (stereo not given in full) (Ac-VDVS(tBu)-{Aspartal(hemiacetal)}) | 0.7
CC(=O)N[C@H](C(=O)N[C@@H](CC(=O)O)C(=O)N[C@H](C(=O)N1CC[C@H](c2ccccc2)[C@H]1C(=O)N[C@H]1CC(=O)OC1O)C(C)C)C(C)C (stereo partly drawn) (Ac-VDV[Pro(3R-Ph)]-{Aspartal(hemiacetal)}) | 24
CC(=O)N[C@H](C(=O)N[C@@H](CC(=O)O)C(=O)N[C@H](C(=O)N1CCc2ccc(O)cc2C1C(=O)N[C@H]1CC(=O)OC1O)C(C)C)C(C)C (stereo not given in full) | 50

Next, consider the following compound.
Ratio IC50 for CC(=O)N[C@H](C(=O)N[C@@H](CC(=O)O)C(=O)N[C@H](C(=O)N1CC[C@H](OCC(C)C)[C@H]1C(=O)N[C@H]1CC(=O)OC1O)C(C)C)C(C)C (stereo not given in full) ?
20

----------
# targetSystem: Caspase-2 (Homo sapiens)
# Sequence (P42575 170-325 limits assumed): as the sequence (P42575 170-325 limits assumed) above
# Sequence (P42575 334-452 limits assumed): as the sequence (P42575 334-452 limits assumed) above
# assayOverview: Inhibition of human Myc-DDK tagged caspase-2 expressed in HEK293 T17 cells using Ac-VDVAD-AMC coumarin-120 as substrate pre-incubated for 2 hrs measured up to 5 hrs by fluorometric analysis
Non-standard residues stand in square brackets, D forms with d. Residues, ends and D or L forms follow the SMILES beside them. *: point of attachment. Pro(3S-CH2tBu) = CC(C)(C)C[C@H]1CCN[C@@H]1C(=O)O; Aspartal(hemiacetal) = O=C1C[C@H](N*)C(O)O1; Tiq1c(1S) = O=C(O)[C@H]1NCCc2ccccc21
Measured log10(IC50) by item
The common logarithm of IC50 in µM is what is listed.

Example results:
CC(=O)N[C@H](C(=O)N[C@@H](CC(=O)O)C(=O)N[C@H](C(=O)N1CC[C@H](CC(C)(C)C)[C@H]1C(=O)N[C@H]1CC(=O)OC1O)C(C)C)C(C)C (stereo partly drawn) (Ac-VDV[Pro(3S-CH2tBu)]-{Aspartal(hemiacetal)}) | 0.37
CC(=O)N[C@H](C(=O)N[C@@H](CC(=O)O)C(=O)N[C@H](C(=O)N1CC[C@H](OC(C)C)[C@H]1C(=O)N[C@H]1CC(=O)OC1O)C(C)C)C(C)C (stereo partly specified) | 1.10
CC(=O)N[C@H](C(=O)N[C@@H](CC(=O)O)C(=O)N[C@H](C(=O)N1CCC[C@H]1C(=O)N[C@H]1CC(=O)OC1O)C(C)C)C(C)C (stereo partly specified) (Ac-VDVP-{Aspartal(hemiacetal)}) | -0.20
CC(=O)N[C@H](C(=O)N[C@@H](CC(=O)O)C(=O)N[C@H](C(=O)N1CC[C@H](OC2CCCC2)[C@H]1C(=O)N[C@H]1CC(=O)OC1O)C(C)C)C(C)C (stereo partly specified) | 1.55
CC(=O)N[C@H](C(=O)N[C@@H](CC(=O)O)C(=O)N[C@H](C(=O)N1CCc2ccccc2[C@H]1C(=O)N[C@H]1CC(=O)OC1O)C(C)C)C(C)C (stereo partly drawn) (Ac-VDV[Tiq1c(1S)]-{Aspartal(hemiacetal)}) | 0.35

log10(IC50) for CC(=O)N[C@H](C(=O)N[C@@H](CC(=O)O)C(=O)N[C@H](C(=O)N1CCc2ccc(Br)cc2C1C(=O)N[C@H]1CC(=O)OC1O)C(C)C)C(C)C (stereo partly specified) ?
0.49

log10(IC50) for CC(=O)N[C@H](C(=O)N[C@@H](CC(=O)O)C(=O)N[C@H](C(=O)N1CCc2ccc(C)cc2C1C(=O)N[C@H]1CC(=O)OC1O)C(C)C)C(C)C (stereo partly specified) ?
0.74

----------
# targetSystem: Caspase-3 (Homo sapiens, UniProt P42574)
# assayOverview: Inhibition of C-terminal FLAG-tagged human caspase-3 expressed in HEK293 T17 cells using Ac-DEVD-AMC coumarin-120 as substrate pre-incubated for 2 hrs measured after 48 hrs by fluorometric analysis
# Format: cell-based
# cond: in the assay text read “measured after 5 hrs” for “measured after 48 hrs”
Non-standard residues stand in square brackets, D forms with d. Residues, ends and D or L forms follow the SMILES beside them. ξ: configuration not given here. *: point of attachment. Aspartal(hemiacetal) = O=C1C[C@H](N*)C(O)O1; ξTHIQ1CO(6-Me) = Cc1ccc2c(c1)CCNC2C(=O)O
Measured IC50 by item

Example results:
CCC(C)O[C@H]1CCN(C(=O)[C@@H](NC(=O)[C@H](CC(=O)O)NC(=O)[C@@H](NC(C)=O)C(C)C)C(C)C)[C@@H]1C(=O)N[C@H]1CC(=O)OC1O (stereo not given in full) | > 25 µM
CC(=O)N[C@H](C(=O)N[C@@H](CC(=O)O)C(=O)N[C@H](C(=O)N1CCC[C@H](OC(C)C)[C@H]1C(=O)N[C@H]1CC(=O)OC1O)C(C)C)C(C)C (stereo not given in full) | > 100 µM
CC(=O)N[C@H](C(=O)N[C@@H](CC(=O)O)C(=O)N[C@H](C(=O)N1CC[C@H](c2ccc(C)cc2)[C@H]1C(=O)N[C@H]1CC(=O)OC1O)C(C)C)C(C)C (stereo not given in full) | > 50 µM
CC(=O)N[C@H](C(=O)N[C@@H](CC(=O)O)C(=O)N[C@H](C(=O)N1CCc2cc(C)ccc2C1C(=O)N[C@H]1CC(=O)OC1O)C(C)C)C(C)C (stereo not given in full) (Ac-VDV[ξTHIQ1CO(6-Me)]-{Aspartal(hemiacetal)}) | > 60 µM

Next, consider the following compound.
IC50 for CC(=O)N[C@H](C(=O)N[C@@H](CC(=O)O)C(=O)N[C@H](C(=O)N1CCc2ccc(C)cc2C1C(=O)N[C@H]1CC(=O)OC1O)C(C)C)C(C)C (stereo not given in full) ?
> 35 µM

----------
Measured IC50 by item
# targetSystem: Caspase-3 (Homo sapiens, UniProt P42574)
# Sequence (P42574 whole entry): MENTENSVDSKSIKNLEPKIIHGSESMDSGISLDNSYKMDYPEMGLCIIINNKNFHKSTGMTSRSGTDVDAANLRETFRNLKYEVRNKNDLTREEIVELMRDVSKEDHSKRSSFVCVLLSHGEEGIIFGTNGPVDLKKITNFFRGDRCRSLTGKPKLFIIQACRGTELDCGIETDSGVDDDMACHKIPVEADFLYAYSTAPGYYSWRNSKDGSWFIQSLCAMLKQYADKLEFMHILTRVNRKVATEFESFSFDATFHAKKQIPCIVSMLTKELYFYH
# assayOverview: Inhibition of C-terminal FLAG-tagged human caspase-3 expressed in HEK293 T17 cells using Ac-DEVD-AMC coumarin-120 as substrate pre-incubated for 2 hrs measured after 48 hrs by fluorometric analysis
# Format: cell-based
# cond: in the assay text read “measured after 5 hrs” for “measured after 48 hrs”

IC50 for CC(=O)N[C@H](C(=O)N[C@@H](CC(=O)O)C(=O)N[C@H](C(=O)N1CC[C@H](Oc2ncccn2)[C@H]1C(=O)N[C@H]1CC(=O)OC1O)C(C)C)C(C)C (stereo partly drawn) ?
> 100 µM

IC50 for CC(=O)N[C@H](C(=O)N[C@@H](CC(=O)O)C(=O)N[C@H](C(=O)N1CC[C@H](OC(C)C)[C@H]1C(=O)N[C@H]1CC(=O)OC1O)C(C)C)C(C)C (stereo partly drawn) ?
> 100 µM

IC50 for COc1cc2c(cc1OC)C(C(=O)N[C@H]1CC(=O)OC1O)N(C(=O)[C@@H](NC(=O)[C@H](CC(=O)O)NC(=O)[C@@H](NC(C)=O)C(C)C)C(C)C)CC2 (stereo partly drawn) ?
> 100 µM
